target: T1, HER2ECDHis (human, UniProt P04626 23-653, biotinylated in the cross-block ELISA (sites not given)); experiment: ELISA; competitor 132
T1 construct: range 1-653; expressed in HEK-293F; also called soluble HER2; biotinylated HER2ECDHis
Property measured: % binding vs no competitor
// return the numeric value with its unit appended

[ask] Provide only the value of recorded % binding vs no competitor for HuMab 153 (antibody, V domains shown) VH: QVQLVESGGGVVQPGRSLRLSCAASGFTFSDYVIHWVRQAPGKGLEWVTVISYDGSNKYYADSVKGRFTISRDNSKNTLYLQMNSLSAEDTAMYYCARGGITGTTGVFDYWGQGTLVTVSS VL: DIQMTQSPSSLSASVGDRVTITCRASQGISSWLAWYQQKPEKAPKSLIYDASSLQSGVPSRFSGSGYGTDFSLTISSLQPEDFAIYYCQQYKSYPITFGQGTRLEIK
[reply] 33%

[ask] Provide only the value of recorded % binding vs no competitor for HuMab 159 (antibody, V domains shown, also called TH1014-159; PC1014-159) VH: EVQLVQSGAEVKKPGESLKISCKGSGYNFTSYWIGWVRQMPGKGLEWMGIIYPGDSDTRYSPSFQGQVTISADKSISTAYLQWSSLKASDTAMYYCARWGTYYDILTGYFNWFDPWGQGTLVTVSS VL: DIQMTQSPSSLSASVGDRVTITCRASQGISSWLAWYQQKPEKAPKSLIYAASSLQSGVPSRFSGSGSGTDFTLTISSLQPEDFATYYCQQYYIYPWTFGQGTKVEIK
[reply] 79%

[ask] Provide only the value of recorded % binding vs no competitor for HuMab 098 (antibody, V domains shown, also called TH1014-098; PC1014-098) VH: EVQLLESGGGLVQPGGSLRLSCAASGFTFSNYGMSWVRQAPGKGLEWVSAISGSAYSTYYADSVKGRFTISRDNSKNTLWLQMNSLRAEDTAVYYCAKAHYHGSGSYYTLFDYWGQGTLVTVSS VL: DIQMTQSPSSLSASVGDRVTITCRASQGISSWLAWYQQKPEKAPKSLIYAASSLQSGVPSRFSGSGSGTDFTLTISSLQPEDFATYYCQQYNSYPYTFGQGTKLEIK
[reply] 142%

[ask] Provide only the value of recorded % binding vs no competitor for HuMab 127 (antibody, V domains shown) VH: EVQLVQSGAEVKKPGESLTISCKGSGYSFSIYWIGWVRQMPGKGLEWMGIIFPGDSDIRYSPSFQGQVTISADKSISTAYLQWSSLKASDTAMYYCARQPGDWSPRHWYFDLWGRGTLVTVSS VL: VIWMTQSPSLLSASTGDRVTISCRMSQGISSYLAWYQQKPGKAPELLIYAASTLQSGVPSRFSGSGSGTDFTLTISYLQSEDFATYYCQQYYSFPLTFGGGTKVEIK
[reply] 44%
